Data provenance: the kinase profiling compilation of Christmann-Franck et al. (2016)

Some compounds, each annotated with its measured residual activity.
# Target Of Assay: MAP3K1 (human) (UniProt Q13233)
# Sequence (Q13233 whole entry, looked up): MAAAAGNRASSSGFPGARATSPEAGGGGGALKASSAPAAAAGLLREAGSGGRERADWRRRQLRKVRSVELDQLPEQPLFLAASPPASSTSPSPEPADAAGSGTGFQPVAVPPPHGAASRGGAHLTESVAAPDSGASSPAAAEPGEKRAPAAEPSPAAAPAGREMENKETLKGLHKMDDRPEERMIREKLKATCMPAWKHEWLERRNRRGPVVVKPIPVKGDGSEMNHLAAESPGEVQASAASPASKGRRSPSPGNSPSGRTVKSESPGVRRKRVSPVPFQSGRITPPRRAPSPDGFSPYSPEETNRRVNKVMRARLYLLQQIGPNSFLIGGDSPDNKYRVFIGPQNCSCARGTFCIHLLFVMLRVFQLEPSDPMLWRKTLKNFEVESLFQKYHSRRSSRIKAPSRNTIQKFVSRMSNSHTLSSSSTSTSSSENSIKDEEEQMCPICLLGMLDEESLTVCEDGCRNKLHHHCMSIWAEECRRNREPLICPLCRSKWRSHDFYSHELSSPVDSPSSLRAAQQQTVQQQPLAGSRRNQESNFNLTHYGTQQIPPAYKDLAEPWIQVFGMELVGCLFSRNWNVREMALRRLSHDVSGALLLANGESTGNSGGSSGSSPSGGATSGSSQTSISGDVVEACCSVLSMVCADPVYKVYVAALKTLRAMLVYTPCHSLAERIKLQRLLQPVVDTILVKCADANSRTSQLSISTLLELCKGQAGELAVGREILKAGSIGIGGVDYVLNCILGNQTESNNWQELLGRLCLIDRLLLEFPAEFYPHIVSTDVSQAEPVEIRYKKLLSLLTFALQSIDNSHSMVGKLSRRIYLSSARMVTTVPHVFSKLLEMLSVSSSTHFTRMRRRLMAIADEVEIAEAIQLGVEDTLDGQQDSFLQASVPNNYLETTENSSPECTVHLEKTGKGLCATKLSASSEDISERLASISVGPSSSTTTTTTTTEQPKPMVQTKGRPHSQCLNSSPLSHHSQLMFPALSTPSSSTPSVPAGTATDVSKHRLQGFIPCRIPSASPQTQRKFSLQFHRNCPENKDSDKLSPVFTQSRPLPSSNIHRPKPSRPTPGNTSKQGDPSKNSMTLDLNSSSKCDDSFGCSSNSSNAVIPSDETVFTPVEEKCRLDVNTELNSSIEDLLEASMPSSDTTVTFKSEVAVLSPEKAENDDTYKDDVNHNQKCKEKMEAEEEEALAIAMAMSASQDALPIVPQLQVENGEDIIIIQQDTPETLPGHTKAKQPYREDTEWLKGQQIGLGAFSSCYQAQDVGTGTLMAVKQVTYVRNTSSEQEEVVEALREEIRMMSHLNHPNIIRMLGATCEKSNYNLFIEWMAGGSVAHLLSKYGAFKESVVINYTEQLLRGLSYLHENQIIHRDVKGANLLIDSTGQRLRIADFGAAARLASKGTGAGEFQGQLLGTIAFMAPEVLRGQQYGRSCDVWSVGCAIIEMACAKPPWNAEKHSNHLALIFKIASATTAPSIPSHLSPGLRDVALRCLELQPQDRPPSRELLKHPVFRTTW
# Experiment Description: radiometric filter-binding kinase assay
# Applied Conditions: compound 0.01 µM
Only the number, expressed in %, is required.

| Compound | residual activity / % |
| --- | --- |
| O=C(Nc1nc2cc(C(F)(F)F)cc(NC3CC3)n2n1)c1cccnc1 | 97 |
| COc1ccc(N(C(=O)Nc2c(C)cccc2C)c2cc(Nc3ccc(N4CCN(C)CC4)cc3)ncn2)c(OC)c1 | 94 |
| CNC(=O)C1[C@H]2O[C@@](C)([C@@H]1N)n1c3ccccc3c3c4c(c5c6ccccc6n2c5c31)C(=O)NC4 (some centres undefined) | 97 |

In: Query: residual activity; subject: COc1cc(O)c2c(c1)[C@H]1OC1C[C@H](O)[C@H](O)C(=O)/C=C\C[C@H](C)OC2=O (some centres undefined)
Out: 112

* * *

# Target Of Assay: MAP2K2 (human) (UniProt P36507)
# Sequence (P36507 whole entry, looked up): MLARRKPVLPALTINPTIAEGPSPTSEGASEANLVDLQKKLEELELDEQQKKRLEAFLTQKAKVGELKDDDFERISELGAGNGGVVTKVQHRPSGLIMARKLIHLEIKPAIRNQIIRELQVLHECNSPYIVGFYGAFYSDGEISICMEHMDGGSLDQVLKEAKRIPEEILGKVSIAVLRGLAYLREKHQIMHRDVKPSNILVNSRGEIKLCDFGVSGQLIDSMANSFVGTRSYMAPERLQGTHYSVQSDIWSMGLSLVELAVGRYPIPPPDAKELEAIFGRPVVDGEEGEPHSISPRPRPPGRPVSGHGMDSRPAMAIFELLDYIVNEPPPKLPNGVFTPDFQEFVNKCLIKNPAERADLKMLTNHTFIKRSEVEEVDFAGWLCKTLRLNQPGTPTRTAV
# Experiment Description: radiometric filter-binding kinase assay
# Applied Conditions: compound 0.1 µM
One threshold, 90%, splits the recorded residual activity values: lower ones are True, equal or higher ones are False.

| Molecule | Answer Label |
| --- | --- |
| NC(=O)c1cc(-c2ccnc(NC3CCCCC3)c2)nc(N2CCNCC2)c1 | False |

In: Consider Cc1ccc(-c2ccc3c(ccc4sc5c(c43)NC[C@@H](C)NC5=O)n2)cn1 . Does its residual activity lie strictly below 90%?
Out: False

In: Request: CNC(=O)C1[C@H]2O[C@@](C)([C@@H]1N)n1c3ccccc3c3c4c(c5c6ccccc6n2c5c31)C(=O)NC4 (stereo partly specified)
Out: True

In: Request: COc1cc(O)c2c(c1)[C@H]1OC1C[C@H](O)[C@H](O)C(=O)/C=C\C[C@H](C)OC2=O (stereo partly specified)
Out: True

In: Request: C=CC(=O)N1CCC[C@@H](n2nc(-c3ccc(Oc4ccccc4)cc3)c3c(N)ncnc32)C1
Out: False

In: Request: COc1cc(O)c2c(c1)/C=C/C[C@H](O)[C@H](O)C(=O)/C=C\C[C@H](C)OC2=O
Out: True

* * *

Some molecules, each annotated with its measured residual activity.
# Tested on: AKT2 (human), P31751 [S474D]
# Experiment Description: radiometric filter-binding kinase assay
# Applied Conditions: compound 10.0 µM
Only the number, expressed in %, is required.

Recorded results for 2 molecules are shown here.
| Molecule | Measure Unit | residual activity |
| --- | --- | --- |
| FC(F)(F)c1ccc(-c2ccc(Oc3cncc4sc(-c5nn[nH]n5)cc34)cc2)cc1 | % | 98 |
| NCC(=O)Nc1ccc(-n2nc(C(F)(F)F)cc2-c2ccc3c(ccc4ccccc43)c2)cc1 | % | 54 |

In: Query: residual activity; subject: O=S(=O)(c1ccc(F)c2nonc12)N1CCN(c2ncc(C(F)(F)F)cc2Cl)CC1
Out: 84

In: Request: NC(=O)c1ccc(-c2ccc(Oc3cncc4sc(-c5nn[nH]n5)cc34)cc2)cc1
Out: 62

In: Request: COc1cc2ncn(-c3cc(OCc4ccccc4S(C)(=O)=O)c(C#N)s3)c2cc1OC
Out: 98

In: Request: NC(=O)c1c(NC(=O)C2CC2)sc2c1CCCC2
Out: 96

In: Request: COc1cc(C(=O)N2CCOCC2)c(F)cc1Nc1ncc(C(F)(F)F)c(NC2CC2)n1
Out: 98

In: Request: O=C(NOCC(O)CO)c1ccc(F)c(F)c1Nc1ccc(I)cc1Cl (stereo not given)
Out: 90

In: Request: Cc1cc(SCc2sc(-c3ccc(C(F)(F)F)cc3)nc2C)ccc1OCC(=O)O
Out: 103

In: Request: COC(=O)/C=C/C(=O)OC
Out: 81

* * *

Some compounds, each annotated with its measured residual activity.
# Target Of Assay: ZAP70 (human) (UniProt P43403)
# Sequence (P43403 whole entry, looked up): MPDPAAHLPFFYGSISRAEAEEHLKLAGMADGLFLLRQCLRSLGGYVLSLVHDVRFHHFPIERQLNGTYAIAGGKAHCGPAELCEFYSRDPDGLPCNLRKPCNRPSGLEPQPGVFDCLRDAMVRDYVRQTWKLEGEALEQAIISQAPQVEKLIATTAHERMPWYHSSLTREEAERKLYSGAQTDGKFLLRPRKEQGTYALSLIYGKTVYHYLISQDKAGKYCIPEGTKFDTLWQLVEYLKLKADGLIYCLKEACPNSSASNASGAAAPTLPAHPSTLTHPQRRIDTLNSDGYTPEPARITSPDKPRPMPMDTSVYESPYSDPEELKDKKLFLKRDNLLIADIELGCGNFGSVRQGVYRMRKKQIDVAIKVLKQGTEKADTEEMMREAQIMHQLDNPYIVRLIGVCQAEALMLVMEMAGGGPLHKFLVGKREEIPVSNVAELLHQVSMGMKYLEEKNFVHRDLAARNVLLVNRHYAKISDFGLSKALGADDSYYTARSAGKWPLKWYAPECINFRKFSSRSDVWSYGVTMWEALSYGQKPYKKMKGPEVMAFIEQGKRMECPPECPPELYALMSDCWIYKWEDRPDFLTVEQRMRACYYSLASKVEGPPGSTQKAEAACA
# Experiment Description: radiometric filter-binding kinase assay
# Applied Conditions: compound 1.0 µM
Only the number, expressed in %, is required.

Recorded results for 5 compounds are shown here.
| Compound | Target Of Assay | residual activity, % |
| --- | --- | --- |
| O=C(N[C@@H](COc1ccc2[nH]c(=O)[nH]c2c1)c1ccccc1)c1cccn(Cc2ccc(F)c(F)c2)c1=O | ZAP70 (human) (UniProt P43403) | 106 |
| CCn1c(-c2nonc2N)nc2cncc(CNC3CCNCC3)c21 | ZAP70 (human) (UniProt P43403) | 84 |
| CC(C)(C#N)c1ccc(N2C(=O)OCc3cnc4ccc(-c5cnc6ccccc6c5)cc4c32)cc1 | ZAP70 (human) (UniProt P43403) | 75 |
| O=C(NOC[C@H](O)CO)c1ccc(F)c(F)c1Nc1ccc(I)cc1Cl | ZAP70 (human) (UniProt P43403) | 84 |
| Cc1nc(-c2ccc(OCC(C)C)c(C#N)c2)sc1C(=O)O | ZAP70 (human) (UniProt P43403) | 104 |

In: Query: residual activity; subject: COc1cc(O)c2c(c1)[C@H]1OC1C[C@H](O)[C@H](O)C(=O)/C=C\C[C@H](C)OC2=O (stereo partly specified)
Out: 103

* * *

Some molecules, each annotated with its measured residual activity.
# Target Of Assay: CDK9 CCNT1 (human) (UniProt P50750+O60563)
# Sequence (O60563 whole entry, looked up): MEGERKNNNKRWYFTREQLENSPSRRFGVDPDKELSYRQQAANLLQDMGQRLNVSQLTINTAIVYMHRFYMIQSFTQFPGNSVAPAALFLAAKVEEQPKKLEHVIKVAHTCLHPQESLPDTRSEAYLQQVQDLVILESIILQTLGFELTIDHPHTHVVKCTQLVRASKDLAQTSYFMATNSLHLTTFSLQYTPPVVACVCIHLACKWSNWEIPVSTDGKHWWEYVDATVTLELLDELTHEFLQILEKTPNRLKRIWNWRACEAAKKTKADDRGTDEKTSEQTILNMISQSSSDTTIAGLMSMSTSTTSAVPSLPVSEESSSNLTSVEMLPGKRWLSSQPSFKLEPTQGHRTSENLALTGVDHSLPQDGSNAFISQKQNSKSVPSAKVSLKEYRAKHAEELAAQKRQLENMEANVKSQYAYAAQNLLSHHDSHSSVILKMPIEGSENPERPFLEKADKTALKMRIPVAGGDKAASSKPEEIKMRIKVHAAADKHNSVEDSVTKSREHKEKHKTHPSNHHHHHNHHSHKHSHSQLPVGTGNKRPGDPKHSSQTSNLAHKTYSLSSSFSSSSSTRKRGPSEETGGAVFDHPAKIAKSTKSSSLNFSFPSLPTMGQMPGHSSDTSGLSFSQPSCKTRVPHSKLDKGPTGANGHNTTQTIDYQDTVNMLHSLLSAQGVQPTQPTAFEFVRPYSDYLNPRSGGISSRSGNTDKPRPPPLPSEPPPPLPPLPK
# Sequence (P50750 whole entry, looked up): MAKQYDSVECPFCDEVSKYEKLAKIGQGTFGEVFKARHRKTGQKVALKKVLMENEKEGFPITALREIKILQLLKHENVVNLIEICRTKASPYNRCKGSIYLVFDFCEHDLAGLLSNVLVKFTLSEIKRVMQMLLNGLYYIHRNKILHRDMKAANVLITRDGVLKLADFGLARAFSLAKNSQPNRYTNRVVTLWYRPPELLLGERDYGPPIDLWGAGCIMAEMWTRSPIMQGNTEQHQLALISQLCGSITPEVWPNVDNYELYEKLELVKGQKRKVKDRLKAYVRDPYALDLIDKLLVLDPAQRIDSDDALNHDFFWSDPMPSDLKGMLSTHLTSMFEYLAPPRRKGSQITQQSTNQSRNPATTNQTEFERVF
# Experiment Description: radiometric filter-binding kinase assay
# Applied Conditions: compound 10.0 µM
Only the number, expressed in %, is required.

Recorded results for 3 molecules are shown here.
| Compound Smiles | Measure Unit | residual activity |
| --- | --- | --- |
| CCn1c(-c2nonc2N)nc2cncc(CNC3CCNCC3)c21 | % | 103 |
| NCC(=O)Nc1ccc(-n2nc(C(F)(F)F)cc2-c2ccc3c(ccc4ccccc43)c2)cc1 | % | 83 |
| Cc1ccc(-c2ccc3c(ccc4sc5c(c43)NC[C@@H](C)NC5=O)n2)cn1 | % | 51 |

Field: next molecule
In: Query: residual activity; subject: COC(=O)/C=C/C(=O)OC
Out: 91

* * *

# Target Of Assay: UniProtKB Q13188
# Sequence (Q13188 whole entry, looked up): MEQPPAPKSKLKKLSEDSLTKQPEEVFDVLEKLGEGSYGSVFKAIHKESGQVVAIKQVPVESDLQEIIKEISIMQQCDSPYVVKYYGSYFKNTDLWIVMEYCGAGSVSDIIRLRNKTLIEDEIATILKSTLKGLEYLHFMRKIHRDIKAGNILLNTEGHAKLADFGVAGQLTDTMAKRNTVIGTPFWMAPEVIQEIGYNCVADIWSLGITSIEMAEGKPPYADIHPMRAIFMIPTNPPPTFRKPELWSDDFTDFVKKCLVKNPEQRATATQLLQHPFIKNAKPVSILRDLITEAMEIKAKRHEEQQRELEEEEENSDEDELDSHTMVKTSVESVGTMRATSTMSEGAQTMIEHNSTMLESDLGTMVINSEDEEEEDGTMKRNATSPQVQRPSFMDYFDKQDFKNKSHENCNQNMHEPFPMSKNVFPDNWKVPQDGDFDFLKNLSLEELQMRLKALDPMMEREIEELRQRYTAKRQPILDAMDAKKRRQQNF
# Experiment Description: radiometric filter-binding kinase assay
# Applied Conditions: compound 10.0 µM
Where residual activity equals or exceeds 80%, the correct label is label 1; where it does not, the label is label 0.

Known results for compounds:
| Compound | Answer Label |
| --- | --- |
| CCCC(CCC)C(=O)O | label 1 |
| COc1ccc2c(c1)c1c3c(c4c5ccccc5n(C)c4c1n2CC(O)CN(C)C)C(=O)NC3=O (configuration not stated) | label 0 |
| O=C(NOC[C@H](O)CO)c1ccc(F)c(F)c1Nc1ccc(I)cc1Cl | label 0 |
| FC(F)(F)c1ccc(-c2ccc(Oc3cncc4sc(-c5nn[nH]n5)cc34)cc2)cc1 | label 0 |
| CCn1c(-c2nonc2N)nc2cncc(CNC3CCNCC3)c21 | label 0 |
| Cc1ccc(-c2ccc3c(ccc4sc5c(c43)NC[C@@H](C)NC5=O)n2)cn1 | label 1 |

Read the next record carefully.
In: Given CN1C(=O)[C@@H](Cc2c[nH]c3ccccc23)NC1=S , state whether its residual activity is at least 80%.
Out: label 1

* * *

# Target Of Assay: TTK (human) (UniProt P33981)
# Sequence (P33981 whole entry, looked up): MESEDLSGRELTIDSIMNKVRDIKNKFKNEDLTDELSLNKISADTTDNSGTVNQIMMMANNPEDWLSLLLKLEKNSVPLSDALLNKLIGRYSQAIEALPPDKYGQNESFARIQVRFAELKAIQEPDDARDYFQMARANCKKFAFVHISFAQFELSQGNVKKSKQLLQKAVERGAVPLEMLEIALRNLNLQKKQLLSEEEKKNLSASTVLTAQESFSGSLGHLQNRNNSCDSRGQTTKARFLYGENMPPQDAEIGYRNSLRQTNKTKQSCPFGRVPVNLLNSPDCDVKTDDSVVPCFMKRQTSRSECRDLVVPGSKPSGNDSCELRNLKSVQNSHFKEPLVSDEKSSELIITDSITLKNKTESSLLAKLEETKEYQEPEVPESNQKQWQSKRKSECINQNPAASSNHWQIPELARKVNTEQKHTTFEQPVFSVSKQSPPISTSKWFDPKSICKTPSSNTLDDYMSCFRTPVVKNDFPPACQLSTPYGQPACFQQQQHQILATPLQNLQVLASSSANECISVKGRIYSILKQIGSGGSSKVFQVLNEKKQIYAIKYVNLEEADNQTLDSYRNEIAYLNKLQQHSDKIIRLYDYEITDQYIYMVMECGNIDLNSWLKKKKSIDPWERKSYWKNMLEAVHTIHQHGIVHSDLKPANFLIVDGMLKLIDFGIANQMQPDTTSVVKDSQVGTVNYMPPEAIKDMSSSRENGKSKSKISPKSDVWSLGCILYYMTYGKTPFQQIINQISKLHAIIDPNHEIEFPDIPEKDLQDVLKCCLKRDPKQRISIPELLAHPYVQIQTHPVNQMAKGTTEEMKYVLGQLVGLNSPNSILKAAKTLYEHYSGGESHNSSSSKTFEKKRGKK
# Experiment Description: radiometric filter-binding kinase assay
# Applied Conditions: compound 0.1 µM
Attribute Measured: residual activity (%)
Only the number, expressed in %, is required.

Recorded results for 4 molecules are shown here.
| Molecule | Measure Unit | residual activity |
| --- | --- | --- |
| CN1CCN(CCOc2cc(OC3CCOCC3)c3c(Nc4c(Cl)ccc5c4OCO5)ncnc3c2)CC1 | % | 112 |
| CCCCCc1ccc(/C=C/[C@H](O)[C@@H](CO)NC)cc1 | % | 95 |
| Cc1cc(NC(=O)c2cccc(NC(=O)/C=C/CN(C)C)c2)ccc1Nc1nccc(-c2cccnc2)n1 | % | 85 |
| CNC(=O)C1[C@H]2O[C@@](C)([C@@H]1N)n1c3ccccc3c3c4c(c5c6ccccc6n2c5c31)C(=O)NC4 (some centres undefined) | % | 13 |

In: Query: residual activity; subject: COc1ccc(N(C(=O)Nc2c(C)cccc2C)c2cc(Nc3ccc(N4CCN(C)CC4)cc3)ncn2)c(OC)c1
Out: 92

* * *

# Target Of Assay: CSNK2A1 (human)
# Experiment Description: radiometric filter-binding kinase assay
# Applied Conditions: compound 1.0 µM
One threshold, 90%, splits the recorded residual activity values: lower ones are criterion met, equal or higher ones are criterion not met.

Known results for molecules:
| Molecule | Answer Label |
| --- | --- |
| O=C(N[C@@H](COc1ccc2[nH]c(=O)[nH]c2c1)c1ccccc1)c1cccn(Cc2ccc(F)c(F)c2)c1=O | criterion not met |
| O=c1c(O)c(-c2ccc(O)c(O)c2)oc2cc(O)c(O)c(O)c12 | criterion met |
| CN(C)C/C=C/C(=O)Nc1cccc(C(=O)Nc2ccc(Nc3nccc(-c4cccnc4)n3)cc2)c1 | criterion met |
| CC1=C(CO)C(=O)O[C@@H]([C@@H](C)[C@H]2CC[C@H]3[C@@H]4C[C@H]5O[C@]56[C@@H](O)C=CC(=O)[C@]6(C)C4CC[C@]23C)C1 (some centres undefined) | criterion not met |
| O=C(NOC[C@H](O)CO)c1ccc(F)c(F)c1Nc1ccc(I)cc1Cl | criterion not met |

In: Consider O=C1NC(=S)N[C@@H]1Cc1c[nH]c2ccccc12 . Does its residual activity lie strictly below 90%?
Out: criterion met

In: Request: Cc1ccc(Sc2cnc(Nc3cccc(Br)n3)s2)cc1C(=O)N1CCN(C(=O)CN)CC1
Out: criterion not met

In: Request: Cc1cccc(-c2nn(C(=S)Nc3ccccc3)cc2-c2ccnc3ccccc23)n1
Out: criterion not met
